experimental.target: CYP 2A6 (liver microsomes) (Homo sapiens, UniProt P11509)
Construct: from tissue; host or cells: human liver microsomes
Sequence (P11509 1-494): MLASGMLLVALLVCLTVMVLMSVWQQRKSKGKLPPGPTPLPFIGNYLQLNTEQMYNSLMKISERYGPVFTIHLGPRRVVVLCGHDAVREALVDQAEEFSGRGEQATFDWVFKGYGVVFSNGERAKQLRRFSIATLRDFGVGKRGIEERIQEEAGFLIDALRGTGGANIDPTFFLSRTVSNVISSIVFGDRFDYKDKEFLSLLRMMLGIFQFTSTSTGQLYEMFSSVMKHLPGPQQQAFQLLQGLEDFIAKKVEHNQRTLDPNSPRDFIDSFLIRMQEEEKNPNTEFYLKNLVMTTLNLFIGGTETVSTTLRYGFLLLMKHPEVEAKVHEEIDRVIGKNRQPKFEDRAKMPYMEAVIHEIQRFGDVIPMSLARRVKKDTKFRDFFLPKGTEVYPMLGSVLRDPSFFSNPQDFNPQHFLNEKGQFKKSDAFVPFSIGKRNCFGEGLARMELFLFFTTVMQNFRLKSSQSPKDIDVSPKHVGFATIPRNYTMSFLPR
assay: Inhibition of hepatic microsome-catalyzed CYP oxidation
Format: in vitro ADME
assay.conditions: CYP 2A6, substrate coumarin, read-out: Microsomal IC50 (µM) with 95% Confidence Intervals
measurement.type: IC50 (µM)
Please give a number only; it is taken to be in µM.

Reported IC50 for C[C@@H]1O[C@@H](O[C@@H]2[C@@H](O)[C@H](OCCc3ccc(O)c(O)c3)O[C@H](CO)[C@H]2OC(=O)/C=C/c2ccc(O)c(O)c2)[C@H](O)[C@H](O)[C@H]1O [Verbascoside] : what is it? 135

###

experimental.target: CYP 1A1 (placental microsomes) (Homo sapiens)
Construct: from tissue; host or cells: human placental microsomes
Sequence (P04798 whole entry): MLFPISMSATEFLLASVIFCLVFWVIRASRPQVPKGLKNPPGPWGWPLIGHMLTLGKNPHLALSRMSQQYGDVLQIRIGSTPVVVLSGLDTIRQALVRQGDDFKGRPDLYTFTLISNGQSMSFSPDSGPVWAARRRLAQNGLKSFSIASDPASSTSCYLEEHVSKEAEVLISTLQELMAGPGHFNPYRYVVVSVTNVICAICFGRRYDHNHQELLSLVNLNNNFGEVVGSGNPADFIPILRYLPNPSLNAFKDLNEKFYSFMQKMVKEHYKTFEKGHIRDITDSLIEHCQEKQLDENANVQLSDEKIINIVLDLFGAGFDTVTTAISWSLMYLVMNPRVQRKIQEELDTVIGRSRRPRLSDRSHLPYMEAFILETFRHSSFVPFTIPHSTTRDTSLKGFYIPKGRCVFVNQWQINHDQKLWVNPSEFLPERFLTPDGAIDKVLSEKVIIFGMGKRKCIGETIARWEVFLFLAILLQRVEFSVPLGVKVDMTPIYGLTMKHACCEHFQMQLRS
assay: Inhibition of placental microsome-catalyzed CYP oxidation
Type: in vitro ADME
assay.conditions: CYP 1A1, substrate TFD024, placental microsomes; read-out: Microsomal IC50 (µM) with 95% Confidence Intervals
measurement.type: IC50 (µM)
Answer in µM, number only, no unit symbol.

// query IC50 value for entry C[C@@H]1O[C@@H](O[C@@H]2[C@@H](O)[C@H](OCCc3ccc(O)c(O)c3)O[C@H](CO)[C@H]2OC(=O)/C=C/c2ccc(O)c(O)c2)[C@H](O)[C@H](O)[C@H]1O [Verbascoside] 350

###

experimental.target: CYP 1A2 (liver microsomes) (Homo sapiens)
Construct: from tissue; host or cells: human liver microsomes
Sequence (P05177 whole entry): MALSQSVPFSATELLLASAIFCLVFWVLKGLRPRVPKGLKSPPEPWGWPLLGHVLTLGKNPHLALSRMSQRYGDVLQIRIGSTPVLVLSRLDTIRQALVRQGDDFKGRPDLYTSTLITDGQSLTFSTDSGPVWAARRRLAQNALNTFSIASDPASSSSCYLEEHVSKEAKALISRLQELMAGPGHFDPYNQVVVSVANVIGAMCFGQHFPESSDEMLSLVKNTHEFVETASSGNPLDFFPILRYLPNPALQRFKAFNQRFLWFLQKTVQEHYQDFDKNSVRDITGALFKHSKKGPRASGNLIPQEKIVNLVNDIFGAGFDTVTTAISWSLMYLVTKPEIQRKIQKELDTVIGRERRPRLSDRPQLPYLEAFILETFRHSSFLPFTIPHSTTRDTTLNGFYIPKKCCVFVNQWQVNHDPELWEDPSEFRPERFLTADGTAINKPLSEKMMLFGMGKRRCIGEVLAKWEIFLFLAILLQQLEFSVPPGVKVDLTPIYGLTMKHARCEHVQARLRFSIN
assay: Inhibition of hepatic microsome-catalyzed CYP oxidation
Type: in vitro ADME
assay.conditions: CYP 1A2, substrate OCA349, liver microsomes; read-out: Microsomal IC50 (µM) with 95% Confidence Intervals
measurement.type: IC50 (µM)
Form entry: value (µM) — number only.

Hi! What's the reported IC50 for C[C@@H]1O[C@@H](O[C@@H]2[C@@H](O)[C@H](OCCc3ccc(O)c(O)c3)O[C@H](CO)[C@H]2OC(=O)/C=C/c2ccc(O)c(O)c2)[C@H](O)[C@H](O)[C@H]1O [Verbascoside] on CYP 1A2 (liver microsomes) (Homo sapiens)? 24

###

experimental.target: CYP 2D6 (liver microsomes) (Homo sapiens, UniProt P10635)
Construct: from tissue; host or cells: human liver microsomes
Sequence (P10635 whole entry): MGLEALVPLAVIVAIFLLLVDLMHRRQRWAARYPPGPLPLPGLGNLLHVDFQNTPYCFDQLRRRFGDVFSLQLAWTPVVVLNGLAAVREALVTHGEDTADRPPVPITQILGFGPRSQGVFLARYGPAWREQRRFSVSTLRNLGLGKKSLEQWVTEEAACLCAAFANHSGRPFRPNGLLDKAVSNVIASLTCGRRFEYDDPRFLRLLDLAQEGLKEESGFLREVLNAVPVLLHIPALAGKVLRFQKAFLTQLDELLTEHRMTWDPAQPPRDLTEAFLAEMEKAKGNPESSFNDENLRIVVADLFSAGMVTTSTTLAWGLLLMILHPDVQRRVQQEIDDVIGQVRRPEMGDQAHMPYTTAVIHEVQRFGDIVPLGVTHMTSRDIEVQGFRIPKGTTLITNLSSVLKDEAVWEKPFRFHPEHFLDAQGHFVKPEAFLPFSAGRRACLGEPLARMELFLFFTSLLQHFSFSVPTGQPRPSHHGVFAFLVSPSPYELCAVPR
assay: Inhibition of hepatic microsome-catalyzed CYP oxidation
Assay type: in vitro ADME
assay.conditions: CYP 2D6, substrate TFD023, liver microsomes; read-out: Microsomal IC50 (µM) with 95% Confidence Intervals
measurement.type: IC50 (µM)
Number only, in µM; omit the unit.

Quick check: IC50 of C[C@@H]1O[C@@H](O[C@@H]2[C@@H](O)[C@H](OCCc3ccc(O)c(O)c3)O[C@H](CO)[C@H]2OC(=O)/C=C/c2ccc(O)c(O)c2)[C@H](O)[C@H](O)[C@H]1O [Verbascoside] ? 96
